// provenance: ChEMBL document CHEMBL3351472

# Test system: Rattus norvegicus
# ASSAY TEXT: Effect on bone calcium mobilization in weanling Sprague-Dawley rat assessed as serum calcium level at 87 pmol/day, ip administered as 4 consecutive daily doses measured 24 hrs after last dose (reference value: 4.2 to 4.9 mg/dL)
# Type: functional
# Lookup of reported Activity keyed by entry
METRIC NAME: Activity (mg/dL)

>>> print(df.to_string())
                                smiles_code  metric_name  assay_result
0  C=C1CC/C(=C/C=C2\CCC[C@]3(C)[C@@H]([C@H](C)CCCC(C)(C)O)CC[C@@H]23)C(=C)[C@H]1O     Activity           4.5
1  C=C1CC(=C)[C@H](O)C/C1=C/C=C1\CCC[C@]2(C)[C@@H]([C@@H](C)CCCC(C)(C)O)CC[C@@H]12     Activity           4.8
2  C=C1CC/C(=C/C=C2\CCC[C@]3(C)[C@@H]([C@@H](C)CCCC(C)(C)O)CC[C@@H]23)C(=C)[C@H]1O     Activity           4.9
3  C=C1CC(=C)[C@H](O)C/C1=C/C=C1\CCC[C@]2(C)[C@@H]([C@H](C)CCCC(C)(C)O)CC[C@@H]12     Activity           4.4
4  C=C1/C(=C\C=C2/CCC[C@]3(C)[C@@H]([C@H](C)CCCC(C)(C)O)CC[C@@H]23)C[C@@H](O)C[C@@H]1O     Activity             5
